# target: Human KLK1 (Homo sapiens (Human))
# assay.text: Determination of the IC50 for KLK1
# Format: biochemical
# experimental.conditions: Human KLK1, 37° C., substrate H-DVal-Leu-Arg-AFC; Table 13
quantity.name: IC50

Query string: Lab request: please report IC50 under test system Human KLK1 (Homo sapiens (Human)) for CCOc1ccc(C[C@@H](NC(=O)c2ccccn2)C(=O)N[C@@H](Cc2ccc(Cl)c(Cl)c2)C(=O)NCc2ccc(CN)cc2)cc1
Result string: > 10 µM

Query string: Field entry: CCOc1ccc(C[C@@H](NC(=O)c2ccncc2)C(=O)N[C@@H](Cc2csc3ccccc23)C(=O)NCc2ccc(CN)cc2)cc1
Result string: > 10 µM

Query string: Next molecule up: COc1ccc(C[C@@H](NC(=O)c2ccccc2)C(=O)N[C@@H](Cc2ccccc2)C(=O)NCc2ccc(CN)cc2)cc1
Result string: > 10 µM

* * *

# target: Human plasma kallikrein (Homo sapiens (Human))
# assay.text: Determination of the IC50 for plasma kallikrein
# Type: biochemical
# experimental.conditions: 37° C., substrate H-DPro-Phe-Arg-AFC, read-out: IC50 (human PKal)
quantity.name: pIC50
Scale: pIC50 equals -log10([C]), with [C] in mol/L.

Query string: # get_value(readout='pIC50', item= CCOc1ccc(C[C@@H](NC(=O)c2cccs2)C(=O)N[C@@H](Cc2ccccc2)C(=O)NCc2ccc(CN)cc2)cc1 [Example 73] )
Result string: 7.60

Query string: Here is the next compound: NCc1ccc(CNC(=O)[C@H](Cc2ccccc2)NC(=O)[C@@H](CC2CCCCC2)NC(=O)c2ccccc2)cc1 [Example 126]
Result string: 5.40

Query string: Query CCOc1ccc(C[C@@H](NC(=O)c2sccc2N)C(=O)N[C@@H](Cc2cscn2)C(=O)NCc2ccc(CN)cc2)cc1 [Example 187] next
Result string: 8.15

Query string: And then COc1ccc(C[C@@H](NC(=O)c2ccccc2)C(=O)N[C@@H](Cc2ccccc2)C(=O)NCc2ccc(CN)cc2)cn1 [Example 137] , what is it?
Result string: 5.12

* * *

# target: Human plasma kallikrein (Homo sapiens (Human))
# assay.text: Determination of the IC50 for plasma kallikrein
# Format: biochemical
# experimental.conditions: 37° C., substrate H-DPro-Phe-Arg-AFC, read-out: IC50 (human PKal)
pIC50: −log10 of the molar value.
Label scheme for pIC50: lower than 7 is class 0, 7 and above is class 1.

Query string: Evaluate CCOc1ccc(C[C@@H](NC(=O)c2ccno2)C(=O)N[C@@H](Cc2ccccc2)C(=O)NCc2ccc(CN)cc2)cc1 [Example 79] : pIC50 at minimum 7?
Result string: class 1

Query string: Please answer likewise for NCc1ccc(CNC(=O)[C@H](Cc2ccccc2)NC(=O)[C@@H](Cc2ccc(OCc3cccc(F)c3)cc2)NC(=O)c2ccccc2)cc1 [Example 136]
Result string: class 0

Query string: Now try CCOc1ccc(C[C@@H](NC(=O)c2sccc2N)C(=O)N[C@@H](Cc2ccccc2)C(=O)NCc2ccc(CN)cc2)cc1 [Example 125] .
Result string: class 1

Query string: Same read-out for CCOc1ccc(C[C@@H](NC(=O)c2ccc(OC(F)(F)F)cc2)C(=O)N[C@@H](Cc2ccccc2)C(=O)NCc2ccc(CN)cc2)cc1 [Example 80] ?
Result string: class 0

Query string: Try the compound CCOc1ccc(C[C@@H](NC(=O)Nc2ccc(Cl)cc2)C(=O)N[C@@H](Cc2ccccc2)C(=O)NCc2ccc(CN)cc2)cc1 [Example 102]
Result string: class 0

Query string: And then CCOc1ccc(C[C@@H](NS(=O)(=O)c2ccc(Cl)cc2)C(=O)N[C@@H](Cc2ccccc2)C(=O)NCc2ccc(CN)cc2)cc1 [Example 84] , what is it?
Result string: class 0

Query string: Next compound: CCOc1ccc(C[C@@H](NC(=O)c2cc(Cl)cc(Cl)c2)C(=O)N[C@@H](Cc2ccccc2)C(=O)NCc2ccc(CN)cc2)cc1 [Example 94]
Result string: class 0

Query string: Also, CCOc1ccc(C[C@@H](NC(=O)c2sccc2NC(C)=O)C(=O)N[C@@H](Cc2csc3ccccc23)C(=O)NCc2ccc(CN)cc2)cc1 [Example 195] please.
Result string: class 1

Query string: Follow-up item: CCOc1ccc(C[C@@H](NC(=O)NC(C)C)C(=O)N[C@@H](Cc2ccccc2)C(=O)NCc2ccc(CN)cc2)cc1 [Example 77]
Result string: class 0

Query string: Now consider CCOc1ccc(C[C@@H](NC(=O)c2cccnc2C)C(=O)N[C@@H](Cc2ccccc2)C(=O)NCc2ccc(CN)cc2)cc1 [Example 105] .
Result string: class 0

Query string: Please do the same for CCOc1ccc(C[C@@H](NC(=O)c2sccc2Cl)C(=O)N(C)[C@@H](Cc2ccccc2)C(=O)NCc2ccc(CN)cc2)cc1 [Example 196] as well.
Result string: class 1

* * *

# target: Human plasma kallikrein (Homo sapiens (Human), UniProt P03952)
# Sequence (P03952 391-638): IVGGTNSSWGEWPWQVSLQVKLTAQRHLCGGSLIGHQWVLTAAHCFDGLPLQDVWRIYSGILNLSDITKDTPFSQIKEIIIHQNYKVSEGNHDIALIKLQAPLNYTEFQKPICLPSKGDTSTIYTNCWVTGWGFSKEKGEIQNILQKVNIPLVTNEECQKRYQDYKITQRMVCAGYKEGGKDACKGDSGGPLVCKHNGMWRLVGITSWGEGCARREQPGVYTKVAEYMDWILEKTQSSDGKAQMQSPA
# Sequence (P03952 20-390 partner): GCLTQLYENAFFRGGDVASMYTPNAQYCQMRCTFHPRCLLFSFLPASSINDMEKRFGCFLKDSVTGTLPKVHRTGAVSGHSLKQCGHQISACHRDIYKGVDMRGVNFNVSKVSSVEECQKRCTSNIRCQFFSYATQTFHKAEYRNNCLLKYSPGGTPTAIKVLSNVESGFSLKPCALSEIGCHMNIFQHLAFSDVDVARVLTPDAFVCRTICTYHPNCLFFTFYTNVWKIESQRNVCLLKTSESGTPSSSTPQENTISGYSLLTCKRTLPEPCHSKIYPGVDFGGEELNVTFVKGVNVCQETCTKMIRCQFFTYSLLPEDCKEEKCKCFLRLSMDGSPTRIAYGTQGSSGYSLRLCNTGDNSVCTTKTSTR
# assay.text: Determination of the IC50 for plasma kallikrein
# Assay type: biochemical
# experimental.conditions: fluorogenic substrate H-DPro-Phe-Arg-AFC, 37° C., read-out: IC50 (human PKal)
quantity.name: IC50
Note: a bare number is incomplete; add the unit.

Query string: Field request: IC50 | item: CN(CC(=O)O)[C@H](CC1CCCCC1)C(=O)N[C@@H](Cc1ccc(Cl)c(Cl)c1)C(=O)NCc1ccc(CN)c(F)c1 [Example 43]
Result string: 1.3 µM

Query string: Field entry: NCc1ccc(CNC(=O)[C@H](Cc2ccccc2)NC(=O)[C@H](N)C(C2CCCCC2)C2CCCCC2)cc1 [Example 52]
Result string: 0.86 µM

Query string: Same for NCc1ccc(CNC(=O)[C@H](Cc2ccc(Cl)c(Cl)c2)NC(=O)[C@H](N)CC2CCCCC2)cc1 [Example 20]
Result string: 0.73 µM

Query string: Then CCCN[C@H](CC1CCCCC1)C(=O)N[C@@H](Cc1ccccc1)C(=O)NCc1ccc(CN)cc1 [Example 37] ?
Result string: 0.91 µM

Query string: Now consider CCOc1ccc(C[C@@H](N)C(=O)N[C@@H](Cc2ccccc2)C(=O)NCc2ccc(CN)c(F)c2)cc1 [Example 6] .
Result string: 1 µM

* * *

# target: Human KLK1 (Homo sapiens (Human), UniProt P06870)
# Sequence (P06870 25-262): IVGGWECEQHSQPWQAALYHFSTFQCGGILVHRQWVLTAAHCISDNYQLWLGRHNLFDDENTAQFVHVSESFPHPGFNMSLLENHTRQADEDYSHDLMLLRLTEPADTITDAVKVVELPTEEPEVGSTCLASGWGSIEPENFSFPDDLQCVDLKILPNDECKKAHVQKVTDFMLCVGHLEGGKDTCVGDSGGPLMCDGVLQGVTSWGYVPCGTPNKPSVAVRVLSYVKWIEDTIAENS
# assay.text: Determination of the IC50 for KLK1
# Assay type: biochemical
# experimental.conditions: Human KLK1, 37° C., substrate H-DVal-Leu-Arg-AFC; Table 13
pIC50: −log10 of the molar value.
Field: pIC50. Provide a value for each of the compounds that follow.

Query string: For the compound shown here, CCOc1ccc(C[C@@H](NC(=O)/C=C/c2ccccc2)C(=O)N[C@@H](Cc2ccccc2)C(=O)NCc2ccc(CN)cc2)cc1 , give the reported pIC50.
Result string: < 5.00

Query string: For CCOc1ccc(C[C@@H](NC(=O)c2ccccn2)C(=O)N[C@@H](Cc2ccccc2)C(=O)NCc2ccc(CN)c(F)c2)cc1 then?
Result string: < 5.00

Query string: Try CCOc1ccc(C[C@@H](NC(=O)c2ccc(C)cc2)C(=O)N[C@@H](Cc2cscn2)C(=O)NCc2ccc(CN)cc2)cc1 next.
Result string: < 5.00

Query string: Also need CCOc1ccc(C[C@@H](NC(=O)c2ccncc2)C(=O)N[C@@H](Cc2ccccc2)C(=O)NCc2ccc(CN)cc2)cc1 , thanks.
Result string: < 5.00

Query string: What would you report for NCc1ccc(CNC(=O)[C@H](Cc2ccccc2)NC(=O)[C@@H](CC2CCCCC2)NC(=O)c2ccccc2)cc1 ?
Result string: < 5.00

Query string: Request: CCOc1ccc(C[C@@H](NC(=O)c2ccccc2)C(=O)N[C@H](C(=O)NCc2ccc(CN)cc2)[C@H](O)c2ccccc2)cc1
Result string: < 5.00

Query string: Another: CCOc1ccc(C[C@@H](NC(=O)c2ccccc2)C(=O)N[C@@H](Cc2ccsc2)C(=O)NCc2ccc(CN)cc2)cc1
Result string: < 5.00

Query string: Repeat with CCOc1ccc(C[C@@H](NC(=O)c2sccc2Cl)C(=O)N(C)[C@@H](Cc2ccccc2)C(=O)NCc2ccc(CN)cc2)cc1
Result string: 5.00

Query string: Request: CCOc1ccc(C[C@@H](NC(=O)c2sccc2Cl)C(=O)N[C@@H](Cc2ccccc2)C(=O)NCc2ccc(CN)cc2)cc1
Result string: 5.20

Query string: Try this compound next: CCOc1ccc(C[C@@H](NC(=O)c2sccc2N)C(=O)N[C@@H](Cc2cscn2)C(=O)NCc2ccc(CN)cc2)cc1 [Example 187]
Result string: < 5.00

Query string: How about this compound: CCOc1ccc(C[C@@H](NC(=O)c2sccc2N)C(=O)N[C@@H](Cc2cscn2)C(=O)NCc2ccc(CN)cc2)cc1 [Example 183]
Result string: < 5.00

Query string: Repeat for the following compound: CCOc1ccc(C[C@@H](NC(=O)c2sccc2NC(C)=O)C(=O)N[C@@H](Cc2ccsc2)C(=O)NCc2ccc(CN)cc2)cc1
Result string: < 5.00

Query string: Query CCOc1ccc(C[C@@H](NC(=O)c2cccs2)C(=O)N[C@@H](Cc2ccccc2)C(=O)NCc2ccc(CN)cc2)cc1 next
Result string: 5.03
